- Experimental Target: thrombin (Bos taurus, UniProt P00735)
- Construct: clotting of bovine fibrinogen
- Test Details: fibrinogen coagulation time (concentration required to prolong the coagulation time by a factor of two)
- Format: biochemical
- Run Conditions: bovine fibrinogen, thrombin 5 units/ml, borate saline buffer pH 7.4, 25° C; control 50-55 seconds prolonged to 100-110 seconds
Non-standard residues stand in square brackets, D forms with d. Residues, ends and D or L forms follow the SMILES beside them. ξ: configuration not given here. *: point of attachment. Dansyl = CN(C)c1cccc2c(S(=O)(=O)*)cccc12; ξPip = O=C(O)C1CCCCN1
Reported IC (2-fold clotting time) values follow for various molecules
Observed Property: IC (2-fold clotting time) (µM)

Molecule	Experimental Target	Observed Property	Measured Number
CCSCCN(CC(=O)O)C(=O)[C@H](CCCNC(=N)N)NS(=O)(=O)c1ccc2cc(OC)c(OC)cc2c1	thrombin (Bos taurus, UniProt P00735)	IC (2-fold clotting time)	5
COc1cc2ccc(S(=O)(=O)N[C@@H](CCCNC(=N)N)C(=O)N(CCc3ccccc3)C(C)C(=O)O)cc2cc1OC (stereo partly shown)	thrombin (Bos taurus, UniProt P00735)	IC (2-fold clotting time)	1.5
CN(C)c1cccc2c(S(=O)(=O)N[C@@H](CCCNC(=N)N)C(=O)N3CCCCC3C(=O)O)cccc12 (stereo partly shown) [compound 183] (Dansyl-Arg-[ξPip]-OH)	thrombin (Bos taurus, UniProt P00735)	IC (2-fold clotting time)	0.35
COc1ccc2cc(S(=O)(=O)N[C@@H](CCCNC(=N)N)C(=O)N(CCCC(=O)O)Cc3ccccc3)ccc2c1	thrombin (Bos taurus, UniProt P00735)	IC (2-fold clotting time)	50
Cc1ccc2ccc(S(=O)(=O)N[C@@H](CCCNC(=N)N)C(=O)N3CCC(C(C)C)CC3C(=O)O)cc2c1 (stereo partly shown)	thrombin (Bos taurus, UniProt P00735)	IC (2-fold clotting time)	0.1
CCOCCN(CCC(=O)O)C(=O)[C@H](CCCNC(=N)N)NS(=O)(=O)c1ccc2cc(OC)c(OC)cc2c1	thrombin (Bos taurus, UniProt P00735)	IC (2-fold clotting time)	4
CCCCN(CC(=O)O)C(=O)[C@H](CCCNC(=N)N)NS(=O)(=O)c1cccc2c1CCCC2	thrombin (Bos taurus, UniProt P00735)	IC (2-fold clotting time)	20
COc1ccc2ccc(S(=O)(=O)N[C@@H](CCCNC(=N)N)C(=O)N3CC[S+]([O-])CC3C(=O)O)cc2c1 (stereo partly shown)	thrombin (Bos taurus, UniProt P00735)	IC (2-fold clotting time)	4.5
COCCCN(CC(=O)O)C(=O)[C@H](CCCNC(=N)N)NS(=O)(=O)c1ccc2cc(OC)c(OC)cc2c1	thrombin (Bos taurus, UniProt P00735)	IC (2-fold clotting time)	5
COCCN(CC(=O)O)C(=O)[C@H](CCCNC(=N)N)NS(=O)(=O)c1ccc2cc(OC)c(OC)cc2c1	thrombin (Bos taurus, UniProt P00735)	IC (2-fold clotting time)	0.5
COc1cc2ccc(S(=O)(=O)N[C@@H](CCCNC(=N)N)C(=O)N(CCc3ccccc3)CC(=O)O)cc2cc1OC	thrombin (Bos taurus, UniProt P00735)	IC (2-fold clotting time)	3
COc1cc2ccc(S(=O)(=O)N[C@@H](CCCNC(=N)N)C(=O)N(CC(=O)O)C3CCCCC3)cc2cc1OC	thrombin (Bos taurus, UniProt P00735)	IC (2-fold clotting time)	5
COc1cc2ccc(S(=O)(=O)N[C@@H](CCCNC(=N)N)C(=O)N(CC(=O)O)CC(C)OC)cc2cc1OC (stereo partly shown)	thrombin (Bos taurus, UniProt P00735)	IC (2-fold clotting time)	6.5
COCCN(CC(=O)Oc1ccc2c(c1)CCC2)C(=O)[C@H](CCCNC(=N)N)NS(=O)(=O)c1ccc2cc(OC)c(OC)cc2c1	thrombin (Bos taurus, UniProt P00735)	IC (2-fold clotting time)	30
COc1cc2ccc(S(=O)(=O)N[C@@H](CCCNC(=N)N)C(=O)N(Cc3ccccc3)C(C)C(=O)O)cc2cc1OC (stereo partly shown)	thrombin (Bos taurus, UniProt P00735)	IC (2-fold clotting time)	2.5
COc1cc2ccc(S(=O)(=O)N[C@@H](CCCNC(=N)N)C(=O)N3Cc4ccccc4CC3C(=O)O)cc2cc1OC (stereo partly shown)	thrombin (Bos taurus, UniProt P00735)	IC (2-fold clotting time)	2
CC(C)C1CCN(C(=O)[C@H](CCCNC(=N)N)NS(=O)(=O)c2ccc3ccccc3c2)C(C(=O)O)C1 (stereo partly shown)	thrombin (Bos taurus, UniProt P00735)	IC (2-fold clotting time)	0.5
COc1cc2ccc(S(=O)(=O)N[C@@H](CCCNC(=N)N)C(=O)N3CCOCC3C(=O)O)cc2cc1OC (stereo partly shown)	thrombin (Bos taurus, UniProt P00735)	IC (2-fold clotting time)	5
COCCN(CC(=O)O)C(=O)[C@H](CCCNC(=N)N)NS(=O)(=O)c1ccc2ccc(C)cc2c1	thrombin (Bos taurus, UniProt P00735)	IC (2-fold clotting time)	0.2
CCCCN(CC(=O)O)C(=O)[C@H](CCCNC(=N)N)NS(=O)(=O)c1ccc2ccc(OC)cc2c1	thrombin (Bos taurus, UniProt P00735)	IC (2-fold clotting time)	0.5
COCCN(CC(=O)O)C(=O)[C@H](CCCNC(=N)N)NS(=O)(=O)c1ccc2ccc(OC)cc2c1	thrombin (Bos taurus, UniProt P00735)	IC (2-fold clotting time)	0.5
COc1cc2ccc(S(=O)(=O)N[C@@H](CCCNC(=N)N)C(=O)N3CCCCC3C(=O)O)cc2cc1OC (stereo partly shown)	thrombin (Bos taurus, UniProt P00735)	IC (2-fold clotting time)	5
COc1ccc2ccc(S(=O)(=O)N[C@@H](CCCNC(=N)N)C(=O)N(CC(=O)O)CC3CCCO3)cc2c1 (stereo partly shown)	thrombin (Bos taurus, UniProt P00735)	IC (2-fold clotting time)	0.15
CCCC(NC(=O)[C@H](CCCNC(=N)N)NS(=O)(=O)c1ccc2cc(OC)c(OC)cc2c1)C(=O)O (stereo partly shown)	thrombin (Bos taurus, UniProt P00735)	IC (2-fold clotting time)	15
CCCCCCN(CC(=O)O)C(=O)[C@H](CCCNC(=N)N)NS(=O)(=O)c1ccc2cc(OC)c(OC)cc2c1	thrombin (Bos taurus, UniProt P00735)	IC (2-fold clotting time)	1.5
